Tested on: Human immunodeficiency virus 1
Assay: Antiviral activity against HIV1 isolate 192 harboring reverse transcriptase M41L/T215Y mutant gene by phenosense assay
Format: functional, organism-based
Conditions: Human immunodeficiency virus 1, isolate 192
Item-by-item account of EC50

{"columns": ["compound", "EC50, nM"],
 "data": [
  ["O=c1[nH]cnc2c1ncn2[C@H]1CC[C@@H](CO)O1", 6300],
  ["Nc1ccn([C@@H]2CS[C@H](CO)O2)c(=O)n1", 7600],
  ["CCCCCCCCCCCCCCCCOCCCOP(=O)(O)CO[C@H](C)Cn1cnc2c(N)ncnc21", 3.9],
  ["Nc1nc(=O)n([C@@H]2CS[C@H](CO)O2)cc1F", 3100],
  ["C[C@H](Cn1cnc2c(N)ncnc21)OCP(=O)(O)O [TENOFOVIR ANHYDROUS]", 1400],
  ["Cc1cn([C@H]2C[C@H](N=[N+]=[N-])[C@@H](CO)O2)c(=O)[nH]c1=O", 560],
  ["Cc1cn([C@H]2C=C[C@@H](CO)O2)c(=O)[nH]c1=O", 840],
  ["Nc1nc(NC2CC2)c2ncn([C@H]3C=C[C@@H](CO)C3)c2n1", 3400]
]}

Cited source: ChEMBL document CHEMBL1629690
